Target: CD73 (Homo sapiens (Human), UniProt P21589)
Sequence (P21589 27-574): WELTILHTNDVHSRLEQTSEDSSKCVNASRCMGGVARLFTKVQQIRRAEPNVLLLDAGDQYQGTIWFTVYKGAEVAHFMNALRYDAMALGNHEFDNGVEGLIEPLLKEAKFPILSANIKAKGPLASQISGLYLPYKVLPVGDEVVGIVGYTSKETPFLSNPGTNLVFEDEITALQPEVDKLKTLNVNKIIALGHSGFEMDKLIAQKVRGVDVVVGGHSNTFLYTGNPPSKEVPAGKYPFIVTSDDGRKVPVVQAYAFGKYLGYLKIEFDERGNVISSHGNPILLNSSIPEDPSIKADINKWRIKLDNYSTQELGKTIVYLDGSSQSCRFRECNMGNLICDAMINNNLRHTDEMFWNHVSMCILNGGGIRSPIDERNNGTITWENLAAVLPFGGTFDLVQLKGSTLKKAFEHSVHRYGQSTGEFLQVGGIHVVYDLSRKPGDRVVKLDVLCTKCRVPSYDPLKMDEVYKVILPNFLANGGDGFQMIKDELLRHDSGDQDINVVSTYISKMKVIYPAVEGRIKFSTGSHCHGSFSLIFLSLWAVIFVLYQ
Test: CD73 Biochemical IC50 Assay
Details: CD73 0.3 nM, AMP 15 uM, 25 mM Tris pH 7.4, 5 mM MgCl2
Measured metric: IC50 (µM)

O=c1[nH]cc(-c2cc(-n3ccnc3)c3nccn3n2)c(=O)[nH]1
0.11

P: O=c1[nH]cc(-c2cc([C@H]3C[C@@H]3c3cccc4ccccc34)c3nccn3n2)c(=O)[nH]1 (racemic)
Q: O=c1[nH]cc(-c2cc(N3CCCC3)c3nccn3n2)c(=O)[nH]1
## Input Lab note: record which item had the higher IC50, P or Q . Please reply using the label of the selected record.
## Output P
(P: 0.17 µM, Q: 0.106 µM)

A: CC(C)(C)[C@H]1C[C@@H]1c1cc(-c2c[nH]c(=O)[nH]c2=O)nn2ccnc12 (racemic)
B: N#Cc1cc(F)cc([C@H]2C[C@@H]2c2cc(-c3c[nH]c(=O)[nH]c3=O)nn3ccnc23)c1 (racemic)
C: O=c1[nH]cc(-c2cc(N3CCOCC3)c3nccn3n2)c(=O)[nH]1
## Input Form: Sort by [IC50] Order [ ascending ] Returns: the labels listed in the requested order.
## Output B, A, C

A: O=c1[nH]cc(-c2cc([C@H]3C[C@@H]3c3ccc(F)cc3F)c3ncc(F)n3n2)c(=O)[nH]1
B: CC1(C)CCN(c2cc(-c3c[nH]c(=O)[nH]c3=O)nc3ccnn23)C1
C: O=c1[nH]cc(-c2cc([C@H]3C[C@@H]3c3ccccn3)c3nccn3n2)c(=O)[nH]1 (racemic)
## Input Form: Sort by [IC50] Order [ ascending ] Returns: the labels listed in the requested order.
## Output A, C, B
(A: 0.00916 µM, C: 0.0201 µM, B: 0.104 µM)

P: O=c1[nH]cc(-c2cc(C3CC3)n3nccc3n2)c(=O)[nH]1
Q: N#Cc1ccc(C[C@H]2C[C@@H]2c2cc(-c3c[nH]c(=O)[nH]c3=O)nn3ccnc23)cc1 (racemic)
## Input Lab note: record which item had the higher IC50, P or Q . Please reply using the label of the selected record.
## Output Q
(Q: 0.205 µM, P: 0.0904 µM)

The origin of these recorded values is patent US20240043427A1.
